Numbers sourced from PubChem BioAssay (NCI).

- method-notes: NCI Yeast Anticancer Drug Screen. Data for the mlh1 rad18 strain (AID 175)
- assay-setup: S. cerevisiae mlh1 rad18 strain growth inhibition; at 50.0 µM (retest, dose inferred, filed as 5.0); hits give high values
About 79,000 compounds went through this panel and 15% of them were active in at least one assay; those are over-represented in the sample as a whole.
# if value of growth inhibition reaches 90%, tag TRUE; if it stays below, tag FALSE

Study these solved cases before continuing.
- compound: "Cc1c2c(c(C)c3c[n+](C)ccc13)Oc1ccccc1O2"
  label: "FALSE"
- compound: "COc1ccc(/C(C#N)=C/c2cccc(N)c2)cc1"
  label: "FALSE"

Kindly determine if growth inhibition recorded for `C=COC(=O)c1ccccc1C(=O)OCCCC` is above or exactly 90%. FALSE

Kindly determine if growth inhibition recorded for CCC1C[N+]2=C(c3cc(OC)c(OC)cc3CC2)c2c1cc1n2CCc2cc(OC)c(OC)cc2-1 (stereo unspecified) is above or exactly 90%. TRUE

Kindly determine if growth inhibition recorded for `Oc1ccc(Cc2ccc(Cl)cc2)c(O)c1` is above or exactly 90%. TRUE
